Cytochrome P450 1A2 (Homo sapiens, UniProt P05177) measurements of AC50, listed per entry.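 Further: PubChem cytochrome P450 panel assay, CYP1A2 panel member.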
Sequence (P05177 whole entry): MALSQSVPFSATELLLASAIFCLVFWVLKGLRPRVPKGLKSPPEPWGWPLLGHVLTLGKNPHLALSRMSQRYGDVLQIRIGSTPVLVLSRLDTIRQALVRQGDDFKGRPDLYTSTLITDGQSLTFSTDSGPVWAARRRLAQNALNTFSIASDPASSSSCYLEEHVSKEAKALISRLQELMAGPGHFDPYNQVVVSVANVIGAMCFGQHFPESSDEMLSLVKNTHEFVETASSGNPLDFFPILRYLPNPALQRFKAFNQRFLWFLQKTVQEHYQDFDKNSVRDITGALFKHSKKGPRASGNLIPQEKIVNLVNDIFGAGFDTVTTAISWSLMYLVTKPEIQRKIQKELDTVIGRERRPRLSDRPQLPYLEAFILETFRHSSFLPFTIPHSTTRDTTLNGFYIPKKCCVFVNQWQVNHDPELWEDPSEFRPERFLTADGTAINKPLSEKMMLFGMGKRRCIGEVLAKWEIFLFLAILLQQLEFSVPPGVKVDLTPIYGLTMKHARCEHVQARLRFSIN

Compound	Observed
O=C(O)[C@@H]1[C@@H](C(=O)O)[C@]23C[C@@]2(C(=O)O)[C@]2(C(=O)O)CCC3=C3CCCC312	2.51 µM (inconclusive)
COc1ccc(C(O)P(=O)(OC(C)C)OC(C)C)cc1OC (stereo not given)	11.2 µM (inconclusive)
CC(C)(S)[C@H](N)C(=O)O	6.31 µM (inconclusive)
O=C(NC1CCCCC1)C(c1cccs1)N(C(=O)C(F)(F)F)c1ccccc1 (stereo not given)	2.51 µM (inconclusive)

Now let's try a different one.
Quick check: AC50 of COc1ccc(CNc2ncnc3ccc(-c4ccccc4CN(C)C)cc23)c(OC)c1 ?
31.6 µM (inconclusive)
